- SYSTEM_TESTED: D(3) dopamine receptor (Homo sapiens)
- Sequence (P35462 whole entry): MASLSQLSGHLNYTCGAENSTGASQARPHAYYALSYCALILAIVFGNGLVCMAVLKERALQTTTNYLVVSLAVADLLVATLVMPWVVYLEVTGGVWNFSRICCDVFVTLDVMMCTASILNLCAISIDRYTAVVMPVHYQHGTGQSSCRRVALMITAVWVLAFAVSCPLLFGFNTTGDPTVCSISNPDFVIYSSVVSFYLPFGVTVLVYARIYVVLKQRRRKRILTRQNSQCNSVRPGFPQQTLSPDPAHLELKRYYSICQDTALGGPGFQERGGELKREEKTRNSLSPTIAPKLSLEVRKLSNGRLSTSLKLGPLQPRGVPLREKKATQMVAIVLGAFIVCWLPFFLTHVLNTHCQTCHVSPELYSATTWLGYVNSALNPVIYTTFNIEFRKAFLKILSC
MEASUREMENT_KIND: pKi
Answers are plain numbers, as −log10 of the molar value.

pKi reported for this compound `Clc1cccc(N2CCN(CCCc3cn(-c4ccn5nccc5c4)nn3)CC2)c1Cl` : 8.07

---

- SYSTEM_TESTED: D(2) dopamine receptor (Homo sapiens)
- ASSAY: biochemical
- Type: cell-based, CHO
- Description: Displacement of [3H]spiperone from human dopamine D2S receptor expressed in CHO cell membranes by radioligand competition binding assay
# strict inequality: Ki < 9 nM yields Y, everything else yields N

Previously resolved entries follow.
Enquiry: For this molecule, is Ki lower than 9 nM? `Clc1cccc(N2CCN(CCc3cn(-c4ccn5nccc5c4)nn3)CC2)c1Cl`
Return: N

Enquiry: Strictly below 9 nM: is that where Ki of `COc1ccccc1N1CCN(CCCc2cn(-c3ccn4nccc4c3)nn2)CC1` sits?
Return: N

Enquiry: Given `Clc1cccc(N2CCN(CCCc3cn(-c4ccn5nccc5c4)nn3)CC2)c1Cl` , is recorded Ki strictly lower than 9 nM?
Return: N

Enquiry: Lab note: Ki threshold 9 nM. Does this molecule come in strictly under it? `Clc1cccc(N2CCN(CCCCc3cn(-c4ccn5nccc5c4)nn3)CC2)c1Cl`
Return: Y

Enquiry: Consider the molecule `O=Cc1cnn2ccc(-n3cc(CCCCN4CCN(c5cccc(Cl)c5Cl)CC4)nn3)cc12` . Is its Ki strictly less than 9 nM?
Return: N

---
Enquiry: A record lists `COc1ccccc1N1CCN(CCc2cn(-c3ccn4ncc(C=O)c4c3)nn2)CC1` . Is its Ki below 9 nM?
Return: N

Enquiry: Criterion: Ki strictly below 9 nM. Is it met by `O=Cc1cnn2ccc(-n3cc(CCCN4CCN(c5cccc(Cl)c5Cl)CC4)nn3)cc12` ?
Return: Y

Enquiry: Report whether reported Ki is lower than 9 nM (strictly) for `O=Cc1cnn2ccc(-n3cc(CCN4CCN(c5cccc(Cl)c5Cl)CC4)nn3)cc12`
Return: Y

---

- SYSTEM_TESTED: D(2) dopamine receptor (Homo sapiens)
- Assay type: functional, cell-based, HEK293
MEASUREMENT_KIND: EC50 (nM)
Numbers only, in nM.

Lab book: EC50 of `Clc1cccc(N2CCN(CCc3cn(-c4ccn5nccc5c4)nn3)CC2)c1Cl` noted as 479

Item: `COc1ccccc1N1CCN(CCCc2cn(-c3ccn4nccc4c3)nn2)CC1` | EC50: 977

Short answer for `COc1ccccc1N1CCN(CCc2cn(-c3ccn4ncc(C=O)c4c3)nn2)CC1` : EC50 was 550

For the 5 compounds below, give their EC50 values.
1. Clc1cccc(N2CCN(CCCc3cn(-c4ccn5nccc5c4)nn3)CC2)c1Cl
2. Clc1cccc(N2CCN(CCCCc3cn(-c4ccn5nccc5c4)nn3)CC2)c1Cl
3. O=Cc1cnn2ccc(-n3cc(CCCCN4CCN(c5cccc(Cl)c5Cl)CC4)nn3)cc12
4. O=Cc1cnn2ccc(-n3cc(CCN4CCN(c5cccc(Cl)c5Cl)CC4)nn3)cc12
5. O=Cc1cnn2ccc(-n3cc(CCCN4CCN(c5cccc(Cl)c5Cl)CC4)nn3)cc12

Return:
1. 1120
2. 741
3. 692
4. 200
5. 191

---

- SYSTEM_TESTED: 5-hydroxytryptamine receptor 2A (Homo sapiens, UniProt P28223)
- Sequence (P28223 whole entry): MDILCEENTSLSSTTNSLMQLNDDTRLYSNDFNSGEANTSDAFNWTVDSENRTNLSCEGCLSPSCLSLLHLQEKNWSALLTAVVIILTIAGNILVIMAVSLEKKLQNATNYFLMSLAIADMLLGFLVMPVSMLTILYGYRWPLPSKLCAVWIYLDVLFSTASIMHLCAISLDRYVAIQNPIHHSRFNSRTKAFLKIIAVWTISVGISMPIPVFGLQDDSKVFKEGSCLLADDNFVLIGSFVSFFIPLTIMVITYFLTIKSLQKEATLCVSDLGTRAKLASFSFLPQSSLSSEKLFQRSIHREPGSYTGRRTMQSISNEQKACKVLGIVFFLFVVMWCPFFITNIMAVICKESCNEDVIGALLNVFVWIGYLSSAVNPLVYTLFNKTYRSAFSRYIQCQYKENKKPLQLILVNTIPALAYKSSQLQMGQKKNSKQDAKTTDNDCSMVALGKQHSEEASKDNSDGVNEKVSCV
MEASUREMENT_KIND: log10(Ki) (log10 of the value in nM)
Log10 applied to Ki; unit prior to transform: nM.

Sure, the documented log10(Ki) for `CCCc1c(C(=O)NCCCCN2CCN(c3ccccc3OC)CC2)nnn1Cc1ccccc1` is 2.04

log10(Ki) in this record for `COc1ccccc1N1CCN(CCCCCNC(=O)c2nnn(Cc3ccccc3)c2C)CC1` : 2.15

The recorded log10(Ki) for entry `COc1ccccc1N1CCN(CCCCCNC(=O)c2cc3ccccn3n2)CC1` equals 2.34

// for each compound in input: emit log10(Ki)
1. Clc1cccc(N2CCN(CCCc3cn(-c4ccn5nccc5c4)nn3)CC2)c1Cl
2. CCCc1c(C(=O)NCCCCN2CCN(c3ccccc3OC)CC2)nnn1Cc1ccc(OC)cc1
3. Clc1cccc(N2CCN(CCc3cn(-c4ccn5nccc5c4)nn3)CC2)c1Cl
4. O=Cc1cnn2ccc(-n3cc(CCN4CCN(c5cccc(Cl)c5Cl)CC4)nn3)cc12
5. O=Cc1cnn2ccc(-n3cc(CCCN4CCN(c5cccc(Cl)c5Cl)CC4)nn3)cc12

Return:
1. 0.72
2. 1.46
3. 0.85
4. 1.70
5. 0.84

# map each compound to its log10(Ki)
1. O=C(NCCCCN1CCN(c2cccc(Cl)c2Cl)CC1)c1cc2ccccc2[nH]1
2. CCCc1c(C(=O)NCCCCN2CCN(c3ccccc3OC)CC2)nnn1Cc1ccccc1Br

Return:
1.49
1.64

---

Please go through the items and note down their Ki.
- SYSTEM_TESTED: UniProt P21728
- Sequence (P21728 whole entry): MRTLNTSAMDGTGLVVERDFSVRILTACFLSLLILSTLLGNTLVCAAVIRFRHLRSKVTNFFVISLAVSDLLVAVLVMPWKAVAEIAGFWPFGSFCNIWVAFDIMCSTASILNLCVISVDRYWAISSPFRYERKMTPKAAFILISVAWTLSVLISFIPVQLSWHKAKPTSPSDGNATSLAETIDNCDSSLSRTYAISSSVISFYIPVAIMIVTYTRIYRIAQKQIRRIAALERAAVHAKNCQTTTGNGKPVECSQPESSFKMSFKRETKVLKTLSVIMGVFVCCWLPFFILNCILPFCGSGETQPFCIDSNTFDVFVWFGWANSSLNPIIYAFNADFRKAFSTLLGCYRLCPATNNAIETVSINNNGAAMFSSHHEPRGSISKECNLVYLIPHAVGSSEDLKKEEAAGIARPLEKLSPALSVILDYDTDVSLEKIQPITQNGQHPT
Numbers only, in nM.

The recorded Ki with UniProt P21728 for `O=Cc1cnn2ccc(-n3cc(CCCCN4CCN(c5cccc(Cl)c5Cl)CC4)nn3)cc12` was 1500

Summary line: `COc1ccccc1N1CCN(CCCc2cn(-c3ccn4nccc4c3)nn2)CC1` , UniProt P21728, reported Ki = 1700

// assay UniProt P21728, entry `Clc1cccc(N2CCN(CCCc3cn(-c4ccn5nccc5c4)nn3)CC2)c1Cl` , Ki value = 110

For each of the molecules below, state Ki.
1. COc1ccccc1N1CCN(CCc2cn(-c3ccn4ncc(C=O)c4c3)nn2)CC1
2. Clc1cccc(N2CCN(CCc3cn(-c4ccn5nccc5c4)nn3)CC2)c1Cl

Return:
1: 620; 2: 120

---

- SYSTEM_TESTED: D(4) dopamine receptor (Homo sapiens)
- Sequence (P21917 whole entry): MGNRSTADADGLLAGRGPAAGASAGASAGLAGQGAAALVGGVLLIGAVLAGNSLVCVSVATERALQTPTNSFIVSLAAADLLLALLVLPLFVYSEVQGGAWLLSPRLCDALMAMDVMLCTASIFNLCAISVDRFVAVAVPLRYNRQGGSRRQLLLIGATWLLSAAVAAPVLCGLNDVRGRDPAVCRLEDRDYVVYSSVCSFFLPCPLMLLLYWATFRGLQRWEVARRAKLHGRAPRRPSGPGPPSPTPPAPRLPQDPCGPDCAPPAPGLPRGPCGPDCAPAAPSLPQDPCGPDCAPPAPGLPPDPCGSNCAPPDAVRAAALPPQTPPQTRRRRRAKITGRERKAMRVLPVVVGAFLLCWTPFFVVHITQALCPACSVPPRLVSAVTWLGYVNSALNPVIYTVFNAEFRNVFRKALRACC
MEASUREMENT_KIND: Ki (nM)
One number for each entry, in nM.

Guide cases for Ki, answers given:
Value sought: Ki, system D(4) dopamine receptor (Homo sapiens), item `COc1ccccc1N1CCN(CCc2cn(-c3ccn4ncc(C=O)c4c3)nn2)CC1` . Result: 98

Record `O=Cc1cnn2ccc(-n3cc(CCCCN4CCN(c5cccc(Cl)c5Cl)CC4)nn3)cc12` / D(4) dopamine receptor (Homo sapiens), Ki recorded as 1400

Per the reported D(4) dopamine receptor (Homo sapiens) data, `Clc1cccc(N2CCN(CCc3cn(-c4ccn5nccc5c4)nn3)CC2)c1Cl` has Ki of 180

Others:
Note to self: Ki of `COc1ccccc1N1CCN(CCCc2cn(-c3ccn4nccc4c3)nn2)CC1` with D(4) dopamine receptor (Homo sapiens) was 37

---

- SYSTEM_TESTED: UniProtKB P14416
MEASUREMENT_KIND: EC50 (nM)
Give bare numbers, in nM.

Form field EC50, entry `O=Cc1cnn2ccc(-n3cc(CCCN4CCN(c5cccc(Cl)c5Cl)CC4)nn3)cc12` : 955

Sample `O=Cc1cnn2ccc(-n3cc(CCN4CCN(c5cccc(Cl)c5Cl)CC4)nn3)cc12` ; EC50 observed: 3550

# molecule `O=Cc1cnn2ccc(-n3cc(CCCCN4CCN(c5cccc(Cl)c5Cl)CC4)nn3)cc12` ; its EC50 = 1860

Summary for this molecule, `COc1ccccc1N1CCN(CCc2cn(-c3ccn4ncc(C=O)c4c3)nn2)CC1` : EC50 is 4370

Attention now turns to another entry.
Summary for this molecule, `Clc1cccc(N2CCN(CCc3cn(-c4ccn5nccc5c4)nn3)CC2)c1Cl` : EC50 is 1100

---

- SYSTEM_TESTED: D(2) dopamine receptor (Homo sapiens, UniProt P14416)
- Sequence (P14416 whole entry): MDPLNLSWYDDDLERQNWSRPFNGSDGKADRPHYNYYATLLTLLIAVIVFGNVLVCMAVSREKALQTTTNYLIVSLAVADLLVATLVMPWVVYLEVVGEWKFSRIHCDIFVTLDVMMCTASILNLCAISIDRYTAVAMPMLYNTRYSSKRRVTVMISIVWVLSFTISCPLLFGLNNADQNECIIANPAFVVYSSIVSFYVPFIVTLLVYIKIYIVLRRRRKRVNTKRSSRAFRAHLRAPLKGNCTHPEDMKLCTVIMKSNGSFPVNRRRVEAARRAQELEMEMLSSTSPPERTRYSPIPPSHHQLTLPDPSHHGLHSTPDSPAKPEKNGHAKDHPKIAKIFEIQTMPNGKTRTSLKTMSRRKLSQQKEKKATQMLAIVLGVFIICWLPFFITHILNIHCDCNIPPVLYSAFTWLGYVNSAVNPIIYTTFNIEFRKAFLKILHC
- ASSAY: biochemical
- Type: cell-based, CHO
- Description: Displacement of [3H]spiperone from human dopamine D2L receptor expressed in CHO cell membranes by radioligand competition binding assay
Could you please report measured pKi for the items listed next?
Numbers only, as −log10 of the molar value.

// solved cases for pKi follow
Measured pKi, `Cc1c(C(=O)NCCCCN2CCN(c3cccc(Cl)c3Cl)CC2)nnn1Cc1ccccc1` : 7.85

Summary for this compound, `CCCc1c(C(=O)NCCCCN2CCN(c3cccc(Cl)c3Cl)CC2)nnn1Cc1ccccc1` : pKi is 8.19

// pKi lookup, compound = `CCCc1c(C(=O)NCCCCN2CCN(c3ccccc3OC)CC2)nnn1Cc1ccc(OC)cc1` , result: 8.15

Value of pKi reported for the compound `CCCc1c(C(=O)NCCCCCN2CCN(c3ccccc3OC)CC2)nnn1Cc1ccccc1Br` is 9.04

Note to self: pKi recorded for `Clc1cccc(N2CCN(CCCCc3cn(-c4ccn5nccc5c4)nn3)CC2)c1Cl` was 7.64

Recorded pKi (compound `O=Cc1cnn2ccc(-n3cc(CCCN4CCN(c5cccc(Cl)c5Cl)CC4)nn3)cc12` ): 8.17

Documented pKi of `COc1ccccc1N1CCN(CCCc2cn(-c3ccn4nccc4c3)nn2)CC1` : 6.85

Sample `COc1ccc(Cn2nnc(C(=O)NCCCCCN3CCN(c4ccccc4OC)CC3)c2C)cc1` ; pKi observed: 8.57

Given item `Clc1cccc(N2CCN(CCc3cn(-c4ccn5nccc5c4)nn3)CC2)c1Cl` , the value recorded as its pKi is 7.66

The value of pKi measured for the compound `CCCc1c(C(=O)NCCCCN2CCN(c3ccccc3OC)CC2)nnn1Cc1ccccc1Br` turned out to be 8.52

Batch request: pKi per item, same order as input.
1. CCCc1c(C(=O)NCCCCN2CCN(c3ccccc3OC)CC2)nnn1Cc1ccccc1
2. Clc1cccc(N2CCN(CCCc3cn(-c4ccn5nccc5c4)nn3)CC2)c1Cl

Return:
[8.19, 6.89]

Items follow; give pKi for each.
1. COc1ccccc1N1CCN(CCCCNC(=O)c2nnn(Cc3ccccc3Br)c2C)CC1
2. COc1ccc(Cn2nnc(C(=O)NCCCCCN3CCN(c4cccc(Cl)c4Cl)CC3)c2C)cc1
3. O=Cc1cnn2ccc(-n3cc(CCN4CCN(c5cccc(Cl)c5Cl)CC4)nn3)cc12

Return:
1: 7.77; 2: 8.82; 3: 7.96

Go through the items and report each one's pKi.
1. COc1ccccc1N1CCN(CCCCCNC(=O)c2nnn(Cc3ccccc3)c2C)CC1
2. COc1ccccc1N1CCN(CCCCCNC(=O)c2nnn(Cc3ccccc3Br)c2C)CC1
3. O=Cc1cnn2ccc(-n3cc(CCCCN4CCN(c5cccc(Cl)c5Cl)CC4)nn3)cc12
4. COc1ccccc1N1CCN(CCc2cn(-c3ccn4ncc(C=O)c4c3)nn2)CC1
5. COc1ccccc1N1CCN(CCCCNC(=O)c2nnn(Cc3ccccc3)c2C)CC1

Return:
1. 8.60
2. 9.24
3. 6.96
4. 7.74
5. 7.46
